SYSTEM UNDER TEST: tau (Homo sapiens, UniProt P10636)
PROTOCOL DESCRIPTION: MCE Phenols Library screening, tau biosensor cell seeding assay (AvZ)
Format: cell-based
RUN CONDITIONS: average of raw data 1 and 2
Kindly supply the reported av puncta values for the records listed here.
One number for each entry.

* COc1ccc(O)c(C(=O)O)c1 [5-Methoxysalicylic acid] | 20749.6
* COc1ccc(C(=O)O)cc1O [Isovanillic acid] | 18113.3
* COc1c(/C=C/C(=O)c2ccc(O)c(CC=C(C)C)c2)ccc(O)c1O [Licochalcone D] | 25231

Turning now to a further molecule:
Problem: # input molecule: COc1ccc(-c2cc(=O)c3c(O)cc(O[C@@H]4O[C@H](CO)[C@@H](O)[C@H](O)[C@H]4O[C@@H]4O[C@@H](C)[C@H](O)[C@@H](O)[C@H]4O)cc3o2)cc1O [Neodiosmin] ; wanted: its av puncta
Result: 28108.4

---

Kindly supply the reported Z Repl 2 values for the records listed here.
SYSTEM UNDER TEST: tau (Homo sapiens, UniProt P10636)
PROTOCOL DESCRIPTION: MCE Phenols Library screening, tau biosensor cell seeding assay (AvZ)
Type: cell-based
RUN CONDITIONS: Z score, replicate 2
Give bare numbers.

* O.O=C(O)c1cc(O)c(O)c(O)c1 [Gallic acid (hydrate)] | -1.097
* CC(=O)Oc1ccc(/C=C/c2cc(OC(C)=O)cc(OC(C)=O)c2)cc1 | -0.064
* NCC(c1ccc(O)cc1)C1(O)CCCCC1 (stereo not drawn) | 0.951
* O=C(CCc1ccc(O)cc1)c1c(O)cc(O)cc1O[C@@H]1O[C@H](CO)[C@@H](O)[C@H](O)[C@H]1O | -0.278
* COc1cc(/C=C/C(=O)OC(C)C)ccc1O [Isopropyl ferulate] | -0.833
* O=C(/C=C/c1ccc(O)c(O)c1)O[C@H]1[C@H](O)C[C@](O)(C(=O)O)C[C@H]1O | 0.427
* COc1ccc(-c2oc3c(CCC(C)(C)O)c(O[C@@H]4O[C@H](CO)[C@@H](O)[C@H](O)[C@H]4O)cc(O)c3c(=O)c2O)cc1 [Maohuoside A] | -0.64
* CCc1ccc(O)cc1O | -0.734

Turning now to a further compound:
Problem: # input compound: `Oc1cc(O)c2c(c1)O[C@H](c1ccc(O)c(O)c1)[C@@H](O)C2` ; wanted: its Z Repl 2
Result: -0.523

---

SYSTEM UNDER TEST: P301S 4R1N tau fused with YFP (Homo sapiens, UniProt P10636, P618S)
Sequence (P10636 1-412 isoform P10636-7 P272S): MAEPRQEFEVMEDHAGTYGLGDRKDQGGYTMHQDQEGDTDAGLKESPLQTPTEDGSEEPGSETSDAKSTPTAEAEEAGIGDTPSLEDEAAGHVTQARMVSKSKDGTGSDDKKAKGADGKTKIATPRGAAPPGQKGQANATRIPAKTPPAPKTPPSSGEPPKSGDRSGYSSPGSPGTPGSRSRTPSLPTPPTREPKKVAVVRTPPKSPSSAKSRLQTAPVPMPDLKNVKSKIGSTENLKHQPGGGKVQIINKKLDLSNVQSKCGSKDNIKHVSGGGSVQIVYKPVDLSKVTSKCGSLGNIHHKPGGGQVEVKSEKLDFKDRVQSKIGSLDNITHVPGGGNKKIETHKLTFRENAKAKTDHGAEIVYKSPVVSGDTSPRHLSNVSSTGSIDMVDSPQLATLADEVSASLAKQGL
PROTOCOL DESCRIPTION: cell-based
READOUT NAME: pIC50
Give bare numbers, as −log10 of the molar value.

Problem: # input compound: NCCc1ccc(O)c(O)c1 [DA, dopamine, reference compound] ; wanted: its pIC50
Result: 4.78

---

SYSTEM UNDER TEST: UniProt P10636
PROTOCOL DESCRIPTION: MCE Phenols Library screening, tau biosensor cell seeding assay (AvZ)
Type: cell-based
RUN CONDITIONS: puncta, replicate 2
Kindly supply the reported raw data 2 values for the records listed here.
Answers are plain numbers.

Answered examples (3):
- COC(=O)c1c2c(c3ccccc3c1O)OC(C)(C)C=C2: 18983.8
- COc1cc2c(cc1O)-c1cc3ccc(OC)c(OC)c3c[n+]1CC2: 19562.6
- COc1cc(/C=C/CO)ccc1O: 16173.9

Please state raw data 2 for every molecule in the list that follows.
1. COc1c2c3c4c(c(OC)c(=O)c5c(O)cc(OC)c(c6c(OC)cc(O)c(c1=O)c63)c54)[C@@H](C(C)=O)[C@@](C)(O)C2
2. Cc1cc(O)cc(O)c1

Result:
1. 813.974
2. 9395.45

Please state raw data 2 for every molecule in the list that follows.
1. Oc1ccc(/C=C/c2cc(O)cc(O)c2)cc1
2. COc1cc(-c2cc(=O)c3c(O)c(OC)c(O)cc3o2)ccc1O
3. Oc1cc(O)c2c(c1)O[C@@H](c1cc(O)c(O)c(O)c1)[C@H](O)C2 [(-)-Gallocatechin]
4. Oc1ccc([C@H]2COc3cc(O)ccc3C2)cc1 [(-)-(S)-Equol]

Result:
1: 4048.5; 2: 17499.7; 3: 4767.22; 4: 6384.95
